Molecular target: Steroid 17-alpha-hydroxylase/17,20 lyase (Homo sapiens, UniProt P05093)
Assay: Inhibition of 17,20-lyase activity of human CYP17A1
observable: IC50 (nM)
The reply should contain only the number, in nM.

Q: Data request, read-out IC50, for "CNC(=O)c1ccc2cc([C@](O)(c3c[nH]cn3)C(C)C)ccc2c1"
Ans: 5.5

* * *

Target: Cytochrome P450 3A4 (Homo sapiens, UniProt P08684)
Sequence (P08684 whole entry): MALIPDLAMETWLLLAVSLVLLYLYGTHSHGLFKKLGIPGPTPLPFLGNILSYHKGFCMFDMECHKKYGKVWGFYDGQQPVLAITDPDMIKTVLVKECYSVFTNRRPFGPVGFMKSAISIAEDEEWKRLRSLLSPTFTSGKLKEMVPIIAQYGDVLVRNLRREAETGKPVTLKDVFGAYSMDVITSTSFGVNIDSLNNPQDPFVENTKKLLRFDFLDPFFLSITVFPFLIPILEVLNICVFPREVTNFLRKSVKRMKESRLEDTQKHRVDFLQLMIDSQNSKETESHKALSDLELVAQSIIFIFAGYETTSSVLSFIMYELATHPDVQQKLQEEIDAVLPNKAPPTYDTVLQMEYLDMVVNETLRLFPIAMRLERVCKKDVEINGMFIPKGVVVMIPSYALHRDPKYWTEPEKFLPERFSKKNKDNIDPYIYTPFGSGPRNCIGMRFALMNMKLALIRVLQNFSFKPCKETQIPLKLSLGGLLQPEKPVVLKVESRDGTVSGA
Test: Inhibition of CYP3A4
Format: ADME
observable: IC50 (µM)
Please give a number only; it is taken to be in µM.

Q: I'm curious: which IC50 was measured for "CNC(=O)c1ccc2cc([C@](O)(c3c[nH]cn3)C(C)C)ccc2c1" tested on Cytochrome P450 3A4 (Homo sapiens, UniProt P08684)?
Ans: 7.8

* * *

Target: Steroid 17-alpha-hydroxylase/17,20 lyase (Homo sapiens, UniProt P05093)
Sequence (P05093 whole entry): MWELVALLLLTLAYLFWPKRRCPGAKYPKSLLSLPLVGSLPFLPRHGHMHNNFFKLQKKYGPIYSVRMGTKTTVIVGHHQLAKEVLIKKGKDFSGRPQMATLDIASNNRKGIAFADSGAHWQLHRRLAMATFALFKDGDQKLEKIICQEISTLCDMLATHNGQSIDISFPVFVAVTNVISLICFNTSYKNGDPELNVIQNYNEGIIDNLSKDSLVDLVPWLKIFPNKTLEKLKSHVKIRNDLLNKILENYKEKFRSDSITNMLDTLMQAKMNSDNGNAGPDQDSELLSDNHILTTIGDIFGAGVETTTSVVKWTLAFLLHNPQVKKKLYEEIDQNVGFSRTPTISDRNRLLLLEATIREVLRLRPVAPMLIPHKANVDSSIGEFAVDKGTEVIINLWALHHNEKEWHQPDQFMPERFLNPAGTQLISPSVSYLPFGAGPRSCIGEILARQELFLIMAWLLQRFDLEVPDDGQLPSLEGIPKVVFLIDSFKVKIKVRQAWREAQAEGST
Assay: Inhibition of 17,20-lyase of recombinant human CYP17A1 using [1,2-3H]-17a-hydroxypregnenolone as substrate after 15 mins by TLC analysis
observable: pIC50
In textbook form, pIC50 equals minus log to base ten of the concentration in mol/L.

O=C(NC1CC1)c1ccc2cc(C3(O)CCn4cncc43)ccc2c1 (racemic)    6.54
CNC(=O)c1ccc2cc(C3(O)c4cncn4CC3(C)C)ccc2c1 (racemic)    7.06
NC(=O)c1ccc2cc(C3(O)CCn4cncc43)ccc2c1 (racemic)    7.54
CNC(=O)c1ccc2cc(C3CCn4cncc43)ccc2c1 (racemic)    7.89

Q: Consider the compound shown here: CNC(=O)c1ccc2cc(C(C)(O)c3cncn3C)ccc2c1 (racemic) What is its recorded pIC50?
Ans: 6.39

Q: I'd like to know its pIC50. The compound in question is CC(C)NC(=O)c1ccc2cc(C3(O)CCn4cncc43)ccc2c1 (racemic)
Ans: 6.40

Q: Param item = CCNC(=O)c1ccc2cc(C3(O)CCn4cncc43)ccc2c1 (racemic) ; retrieve measured pIC50.
Ans: 6.72

* * *

Target: Steroid 17-alpha-hydroxylase/17,20 lyase (Rattus norvegicus)
Sequence (P11715 whole entry): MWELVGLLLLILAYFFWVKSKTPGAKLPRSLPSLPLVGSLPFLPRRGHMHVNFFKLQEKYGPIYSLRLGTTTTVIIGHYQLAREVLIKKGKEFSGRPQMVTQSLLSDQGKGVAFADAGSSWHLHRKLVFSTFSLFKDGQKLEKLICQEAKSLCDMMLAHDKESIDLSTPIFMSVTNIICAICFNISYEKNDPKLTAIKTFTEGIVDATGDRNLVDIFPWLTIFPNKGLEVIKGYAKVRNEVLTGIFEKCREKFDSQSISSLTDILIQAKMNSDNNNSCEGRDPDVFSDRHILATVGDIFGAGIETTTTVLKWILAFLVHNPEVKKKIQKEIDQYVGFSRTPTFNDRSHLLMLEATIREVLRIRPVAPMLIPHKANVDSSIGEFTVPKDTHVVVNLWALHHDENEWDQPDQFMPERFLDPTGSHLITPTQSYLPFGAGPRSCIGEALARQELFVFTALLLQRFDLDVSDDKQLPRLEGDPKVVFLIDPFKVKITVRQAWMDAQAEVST
Each item that follows carries a reported IC50.
Kindly answer with a numeric value in µM, unit omitted.

Check out these entries, answers already filled in.
CNC(=O)c1ccc2cc(C3CCn4cncc43)ccc2c1 (racemic)    0.015
O=C(NC1CC1)c1ccc2cc(C3(O)CCn4cncc43)ccc2c1 (racemic)    0.1

The record that follows has no IC50 shown yet.
Q: Entry NC(=O)c1ccc2cc(C3(O)CCn4cncc43)ccc2c1 (racemic) , system Steroid 17-alpha-hydroxylase/17,20 lyase (Rattus norvegicus): what IC50 was measured?
Ans: 0.024
